# reported melting point; entries follow

// known answers, use as guide
compound | melting point
C[C@]1(c2ccc(Cl)cc2)CC1NC(=O)c1c(F)cccc1F (mixture of isomers) | 140 to 142 °C
C[C@H]1C(c2ccc(Cl)cc2)[C@@H]1NC(=O)c1ccccc1C(F)(F)F (mixture of isomers) | 167 to 169 °C
Cn1cc(C(=O)N[C@@H]2C[C@@H]2c2ccc(F)cc2)c(C(F)F)n1 (relative stereo) | 141 to 143 °C
O=C(N[C@@H]1CC1c1ccc(Cl)cc1Cl)c1c(F)cccc1F (stereo partly drawn) | 179 to 182 °C
C[C@H]1C(NC(=O)c2c(F)cccc2F)[C@H]1c1ccc(F)cc1 (mixture of isomers) | 90 to 96 °C

Consider the additional compound presented here.
**Query** Entry under review: O=C(N[C@@H]1C[C@@H]1c1ccc(OC(F)F)cc1)c1ccccc1C(F)(F)F (relative stereo) . Reported melting point?
**Result** 133 to 136 °C
